Tested on: Enterococcus faecium
Experiment: Antimicrobial activity against vancomycin-resistant Enterococcus faecium Ef 379 after 22 hrs by microbroth dilution antibiotic susceptibility assay
Format: functional, organism-based
Settings: Ef 379, 22 h

{"smilesInput": "CC(C)=C[C@@H]1C[C@H](C)[C@H]2CC[C@H](C)c3c2c1c(C)c1nc(CC(N)=O)oc31", "unitAbbreviation": "µg/mL", "relationalOperator": "=", "IC50": 4}
{"smilesInput": "CC(C)=C[C@@H]1C[C@H](C)[C@H]2CC[C@H](C)c3c2c1c(C)c1nc(Cc2ccccc2)oc31", "unitAbbreviation": "µg/mL", "relationalOperator": ">", "IC50": 128}
{"smilesInput": "CC(C)=C[C@@H]1C[C@H](C)[C@H]2CC[C@H](C)c3c2c1c(C)c1nc(C)oc31", "unitAbbreviation": "µg/mL", "relationalOperator": "=", "IC50": 2.5}
{"smilesInput": "CCCCCc1nc2c(C)c3c4c(c2o1)[C@@H](C)CC[C@@H]4[C@@H](C)C[C@H]3C=C(C)C", "unitAbbreviation": "µg/mL", "relationalOperator": ">", "IC50": 128}
{"smilesInput": "CC(C)=C[C@@H]1C[C@H](C)[C@H]2CC[C@H](C)c3c2c1c(C)c1ocnc31", "unitAbbreviation": "µg/mL", "relationalOperator": "=", "IC50": 13}
{"smilesInput": "CC(C)=C[C@@H]1C[C@H](C)[C@H]2CC[C@H](C)c3c2c1c(C)c1ncoc31", "unitAbbreviation": "µg/mL", "relationalOperator": "=", "IC50": 13}
{"smilesInput": "CC(C)=C[C@@H]1C[C@H](C)[C@H]2CC[C@H](C)c3c2c1c(C)c1nc([C@@H](C)O)oc31", "unitAbbreviation": "µg/mL", "relationalOperator": ">", "IC50": 128}
{"smilesInput": "COc1ccccc1-c1nc2c(C)c3c4c(c2o1)[C@@H](C)CC[C@@H]4[C@@H](C)C[C@H]3C=C(C)C", "unitAbbreviation": "µg/mL", "relationalOperator": ">", "IC50": 128}
